Listed binders paired with reported kon
molecular target: T1, human ROR1 Frizzled-His domain protein (amino acid sequence at positions 165-305, Acrobiosystems, RO1-H5222) (human, UniProt Q01973 165-305); assay: SPR Biacore T200, method as Example 6 (antibody Fc-captured, antigen as analyte)
T1 construct: also called Human ROR1 Frizzled-His protein; not shown: His tag
T1 sequence (Q01973 165-305 limits assumed, form in doubt): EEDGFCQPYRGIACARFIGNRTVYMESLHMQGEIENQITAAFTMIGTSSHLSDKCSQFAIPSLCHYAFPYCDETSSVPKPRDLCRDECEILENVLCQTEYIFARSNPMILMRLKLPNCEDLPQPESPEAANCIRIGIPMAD
Please respond with the number in M⁻¹ s⁻¹ and leave the unit unwritten.

binder	value_unit	kon
humanized single domain antibody AHP15662-VHH4 (Fc fusion, Humanized VHH expressed from pcDNA3.4-Fc (Human IgG1); not shown: human IgG1 Fc of the pcDNA3.4-Fc (Human IgG1) expression vector) EVQLVESGGGLVQPGGSLRLSCAASGSISRFYAVGWYRQAPGKQRELVARISSGGSTYYADSVKGRFTISIDNSKNTLYLQMNSLRAEDTAVYYCNARNLWGQGTLVTVSS	M⁻¹ s⁻¹	350000

Next binder, please.
Exercise: Name the recorded kon of the binder listed here: single domain antibody AHP15662-VHH4-Variant3 (Fc fusion, Fc format is inferred; not shown: human IgG1 Fc; vector and li) EVQLVESGGGLVQPGGSLRLSCAASHYISRFYAVGWYRQAPGKQRELVARISSGGWTYYADSVKGRFTISIDNSKNTLYLQMNSLRAEDTAVYYCNARNLWGQGTLVTVSS
Key: 157000
